# experiment: collision cross section in nitrogen (drift tube, single-field); higher = larger gas-phase ion size;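 also: chemical standards at 10 µM analysed by drift tube IMS-QTOF MS in about 3.95 torr nitrogen, mean of duplicate injections differing ≤1%, mass error below 10 ppm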
# conditions: ion type: [M+H]; ion source: ESI; ion mode: Positive
measured-metric: collision cross section in nitrogen (Å²)
One number for each entry, in Å².

>  <compound>
c1ccc(CCCc2ccccn2)cc1

>  <readout-units>
Å²

>  <collision cross section in nitrogen>
141.1

$$$$

# batch: return collision cross section in nitrogen for each of the 2 compounds below
1. O=[N+]([O-])c1cc([As](=O)(O)O)ccc1O [4-Hydroxy-3-nitrophenylarsonic acid]
2. Cc1ncc([N+](=O)[O-])n1CCO

1. 145
2. 134.3

----------
For each record, write down the corresponding collision cross section in nitrogen.
# experiment: collision cross section in nitrogen (drift tube, single-field); higher = larger gas-phase ion size
# conditions: ion type: [M+H]; ion source: APCI; ion mode: Positive
Where a name gives a salt, the structure may show the parent alone.
One number for each entry, in Å².

Sample records with collision cross section in nitrogen:
>  <molecule>
FC(F)C(F)(F)OCC(Cn1cncn1)c1ccc(Cl)cc1Cl (centres undefined)

>  <collision cross section in nitrogen [Å²]>
177.6

$$$$
>  <molecule>
Cc1ccc(C(C)NC(=O)[C@@H](NC(=O)OC(C)C)C(C)C)cc1 (some centres undefined)

>  <collision cross section in nitrogen [Å²]>
184.2

$$$$
>  <molecule>
Cc1cnc2c(C(=O)O)c(Cl)ccc2c1

>  <collision cross section in nitrogen [Å²]>
139.6

$$$$
>  <molecule>
CCCCNC(=S)NCCCC

>  <collision cross section in nitrogen [Å²]>
148.6

$$$$
>  <molecule>
OCCOCCN1CCN(C2=Nc3ccccc3Sc3ccccc32)CC1 [Quetiapine fumarate]

>  <collision cross section in nitrogen [Å²]>
192.1

$$$$
>  <molecule>
CCNc1nc(Cl)nc(NCC)n1

>  <collision cross section in nitrogen [Å²]>
143.3

$$$$
>  <molecule>
c1ccc([C@H]2CN3CCSC3=N2)cc1 [Levamisole hydrochloride]

>  <collision cross section in nitrogen [Å²]>
144.2

$$$$
>  <molecule>
CNc1cnn(-c2cccc(C(F)(F)F)c2)c(=O)c1Cl

>  <collision cross section in nitrogen [Å²]>
162.7

$$$$

Per the records, this molecule ( CC1COc2ccccc2N1 (centres undefined) [3-Methyl-3,4-dihydro-2H-1,4-benzoxazine] ) has collision cross section in nitrogen equal to 130.4
